The reported measurements were obtained from paper PMC9926234.

molecular target: SARS-CoV-2 NSP3 Mac1 (Severe acute respiratory syndrome coronavirus 2); format: binding; set-up: contains a conserved macrodomain enzyme (Mac1); settings: DSF dose responsiveness, 1 µM nsp3 mac1; adj p given
outcomeMeasure: Spearman est (compound concentration vs apparent Tm)

compound: Cc1ccc(-c2noc(CCCSC3CCCNC3=O)n2)cc1F (stereo not shown)
measurementTarget: SARS-CoV-2 NSP3 Mac1 (Severe acute respiratory syndrome coronavirus 2)
observedMeasurement: 0.71
//
compound: O=c1[nH]nc(C2CCCN(c3ncnc4[nH]ccc34)C2)o1 (stereo not shown)
measurementTarget: SARS-CoV-2 NSP3 Mac1 (Severe acute respiratory syndrome coronavirus 2)
observedMeasurement: 0.22
//
compound: O=C(Nc1ccc(C(=O)NCc2c(C(=O)O)[nH]c3ccccc23)cc1)NC1CC1
measurementTarget: SARS-CoV-2 NSP3 Mac1 (Severe acute respiratory syndrome coronavirus 2)
observedMeasurement: 0.7
//
compound: Cc1nc(Cn2cnc3c(N)nc(N)nc32)cs1
measurementTarget: SARS-CoV-2 NSP3 Mac1 (Severe acute respiratory syndrome coronavirus 2)
observedMeasurement: 0.06
//
compound: O=C(c1ncnc2[nH]ccc12)N1CC(n2cncn2)C1
measurementTarget: SARS-CoV-2 NSP3 Mac1 (Severe acute respiratory syndrome coronavirus 2)
observedMeasurement: 0.54
//
compound: NC(=O)Nc1ccc(C(=O)NC2c3cccc(O)c3CC2C(=O)O)cc1 (stereo not shown)
measurementTarget: SARS-CoV-2 NSP3 Mac1 (Severe acute respiratory syndrome coronavirus 2)
observedMeasurement: 0.6
//
compound: Nc1nc(N)c2ncn(Cc3csc(C4CC4)n3)c2n1
measurementTarget: SARS-CoV-2 NSP3 Mac1 (Severe acute respiratory syndrome coronavirus 2)
observedMeasurement: 0.75
//
compound: CNS(=O)(=O)c1cccc(-c2ncnc3[nH]c4ccccc4c23)c1
measurementTarget: SARS-CoV-2 NSP3 Mac1 (Severe acute respiratory syndrome coronavirus 2)
observedMeasurement: −0.29
//
compound: O=C(NC1c2cccc(O)c2CC1C(=O)O)c1ccc(NCC2CC2)nc1 (stereo not shown)
measurementTarget: SARS-CoV-2 NSP3 Mac1 (Severe acute respiratory syndrome coronavirus 2)
observedMeasurement: 0.34
//
compound: Nc1ncc(S(=O)(=O)N2CCC2c2cccc(F)c2)cn1 (stereo not shown)
measurementTarget: SARS-CoV-2 NSP3 Mac1 (Severe acute respiratory syndrome coronavirus 2)
observedMeasurement: −0.66
//
compound: O=C(c1cn[nH]c(=O)c1)N1CCC(CF)(C(=O)O)C1 (stereo not shown)
measurementTarget: SARS-CoV-2 NSP3 Mac1 (Severe acute respiratory syndrome coronavirus 2)
observedMeasurement: −0.24
//
compound: O=C(Nc1ccc(C(=O)N2CC(C(=O)O)Cc3ccccc32)cc1)NC1CC1 (stereo not shown)
measurementTarget: SARS-CoV-2 NSP3 Mac1 (Severe acute respiratory syndrome coronavirus 2)
observedMeasurement: 0.19
//
compound: CS(=O)(=O)C1CCCN(c2ncnc3[nH]c4cc(F)ccc4c23)C1 (stereo not shown)
measurementTarget: SARS-CoV-2 NSP3 Mac1 (Severe acute respiratory syndrome coronavirus 2)
observedMeasurement: 0.41
//
compound: Cc1cc(C)nc(CSc2nnc3c(=O)[nH]c4ccccc4n23)c1
measurementTarget: SARS-CoV-2 NSP3 Mac1 (Severe acute respiratory syndrome coronavirus 2)
observedMeasurement: 0.44
//
compound: CC(C)c1noc(CCc2nc(-c3ccnc4[nH]ccc34)no2)n1
measurementTarget: SARS-CoV-2 NSP3 Mac1 (Severe acute respiratory syndrome coronavirus 2)
observedMeasurement: −0.81
//
compound: O=C(Nc1cccnc1)Nc1ccc2ccccc2n1
measurementTarget: SARS-CoV-2 NSP3 Mac1 (Severe acute respiratory syndrome coronavirus 2)
observedMeasurement: −0.43
//
compound: Nc1ncnc(N2CCC(Oc3ccncc3)C2)c1Cl (stereo not shown)
measurementTarget: SARS-CoV-2 NSP3 Mac1 (Severe acute respiratory syndrome coronavirus 2)
observedMeasurement: −0.85
//
compound: Fc1ccc(F)c(Sc2ncnc3[nH]ccc23)c1
measurementTarget: SARS-CoV-2 NSP3 Mac1 (Severe acute respiratory syndrome coronavirus 2)
observedMeasurement: 0.01
//
compound: CC1C(C(=O)O)CCCN1S(=O)(=O)c1c[nH]c2ncc(Cl)cc12 (stereo not shown)
measurementTarget: SARS-CoV-2 NSP3 Mac1 (Severe acute respiratory syndrome coronavirus 2)
observedMeasurement: −0.16
